target: cyclophilin A (Homo sapiens, UniProt P62937)
Sequence (P62937 whole entry, species assumed): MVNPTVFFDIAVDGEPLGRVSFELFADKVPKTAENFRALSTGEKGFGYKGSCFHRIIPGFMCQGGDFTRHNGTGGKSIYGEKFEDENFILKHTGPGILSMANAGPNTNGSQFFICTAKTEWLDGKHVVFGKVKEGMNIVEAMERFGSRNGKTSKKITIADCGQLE

- SMILES_NOTATION: "CC(C)[C@@H]1NC(=O)[C@@H]([C@H](C)O)/C=C/c2ccc3ccc(nc3c2)[C@@H](C)OC(=O)[C@@H]2CCCN(N2)C(=O)[C@H](C)NC1=O"
  IC50: "< 100 nM"
